Test system: MDA-MB231 cell lines
Assay: MTT cell viability assay (IC50)
Format: cell-based
Settings: Homo sapiens, MDA-MB-231, single dose of treatment, 10^-9 to 10^-4 M, absorbance 570 nm
readoutType: IC50 (µM)
Report the figure in µM without appending any unit label.

INPUT: Identify measured IC50 corresponding to O=C(CCc1ccccc1Cl)NC(CC1CNc2ccccc21)C(=O)O (stereo not shown)
OUTPUT: 41

// data source = patent US20230067644A1
